// provenance: ChEMBL document CHEMBL3808278

- test_summary: Binding affinity to rat cortical membrane central-type benzodiazepine receptor measured after 90 mins by liquid-phase scintillation beta-counting method
measurement_type: Ki (nM)
Numbers only, in nM.

Field: example entries. Status: answers known.
{"structure_notation": "CCOC(=O)c1ncn2c1cc(C(=O)N(C)Cc1ccccc1)c1cc(Br)ccc12", "Ki, nM": 24}
{"structure_notation": "CCOC(=O)c1ncn2c1cc(C(=O)N(C)Cc1ccccc1)c1cc(C#C[Si](C)(C)C)ccc12", "Ki, nM": 510}

Please turn your attention to the following entry.
Challenge: Any idea what Ki was measured for C#Cc1ccc2c(c1)c(C(=O)N(C)Cc1ccccc1)cc1c(C(=O)OCC)ncn12 ?
Response given: 161

====

- Species: Bos taurus
- test_summary: Selectivity ratio, ratio of Ki for central-type benzodiazepine receptor in bovine cortical membrane to Ki for central-type benzodiazepine receptor in bovine cortical membrane in presence of 50 uM of GABA
- Assay type: cell membranes
measurement_type: Ratio Ki

{"molecule": "CCOC(=O)c1ncn2c1c(C(=O)OCC)c(-c1ccccc1)c1ccccc12", "Ratio Ki": 0.66}
{"molecule": "CN1C(=O)CN=C(c2ccccc2F)c2cc([N+](=O)[O-])ccc21 [FLUNITRAZEPAM]", "Ratio Ki": 1.68}
{"molecule": "CCCN(CCC)C(=O)c1c(CC)c2c(C(=O)OC(C)(C)C)ncn2c2ccccc12", "Ratio Ki": 1.4}
{"molecule": "CCCN(CCC)C(=O)c1cc2c(C(=O)OC(C)(C)C)ncn2c2ccccc12", "Ratio Ki": 1.1}

Count: 4. Required value per item: Ratio Ki.
1. CCOC(=O)c1ncn2c1cc(C(=O)N(C)Cc1ccccc1)c1cc(F)ccc12
2. CC(C)(C)OC(=O)c1ncn2c1cc(-c1ccccc1)c1ccccc12
3. CCOC(=O)c1ncn2c1c(C)c(C(=O)OC(C)(C)C)c1ccccc12
4. CCCN(CCC)C(=O)c1c(C)c2c(C(=O)OC(C)(C)C)ncn2c2ccccc12

Response given:
1. 0.8
2. 0.8
3. 1.4
4. 1.1

====

- test_summary: Displacement of [3H]-flumazenil from central-type benzodiazepine receptor in bovine cortical membrane after 90 mins by liquid-phase scintillation beta-counting method
- Assay type: cell membranes, Bos taurus
measurement_type: log10 Ki (log10 of the value in nM)
Note: values are log10 of Ki expressed in nM.

Previously resolved entries follow.
{"molecule": "CN(Cc1ccccc1)C(=O)c1ncn2c1cc(-c1ccccc1)c1ccccc12", "measurement_type": "log10 Ki", "readout_number": 2.65}
{"molecule": "CCCN(CCC)C(=O)c1c(C)c2c(C(=O)OC(C)(C)C)ncn2c2ccccc12", "measurement_type": "log10 Ki", "readout_number": 0.00}
{"molecule": "C#CCN(C)C(=O)c1c(C)c2c(C(=O)OCC)ncn2c2ccccc12", "measurement_type": "log10 Ki", "readout_number": 0.08}
{"molecule": "CN(C)C(=O)c1ncn2c1cc(-c1ccccc1)c1ccccc12", "measurement_type": "log10 Ki", "readout_number": 3.55}
{"molecule": "CCOC(=O)c1ncn2c1cc(C(=O)N(C)Cc1ccccc1)c1ccccc12", "measurement_type": "log10 Ki", "readout_number": 1.30}
{"molecule": "CCOC(=O)c1ncn2c1c1c(c3ccccc32)CCC1", "measurement_type": "log10 Ki", "readout_number": 1.26}

Provide reported log10 Ki for each item, in the same order as listed.
1. CCCc1c(C(=O)N(CCC)CCC)c2ccccc2n2cnc(C(=O)OC(C)(C)C)c12
2. CCOC(=O)c1ncn2c1CN(C)C(=O)c1cc(F)ccc1-2 [FLUMAZENIL]
3. CCCN(CCC)C(=O)c1c(CC)c2c(C(=O)OC(C)(C)C)ncn2c2ccccc12
4. CCCc1c(C(=O)N(CCC)CCC)c2ccccc2n2cnc(C(=O)OCC)c12
5. CCOC(=O)c1ncn2c1CN(C(C)=O)c1cc(F)ccc1-2
6. CC(=O)N1Cc2c(C(=O)OC(C)(C)C)ncn2-c2ccc(F)cc21
7. CN(C)C(=O)c1cc2c(C(=O)OC(C)(C)C)ncn2c2ccccc12
8. CCCCN(C)C(=O)c1cc2c(C(=O)OCC)ncn2c2ccccc12

Response given:
1: 3.16; 2: 0.28; 3: 0.75; 4: 1.53; 5: 0.34; 6: 0.00; 7: 1.04; 8: 0.28

====

- Organism: Bos taurus
- test_summary: Selectivity ratio, ratio of Ki for central-type benzodiazepine receptor in bovine cortical membrane to Ki for central-type benzodiazepine receptor in bovine cortical membrane in presence of 50 uM of GABA
- Assay type: cell membranes
measurement_type: Ratio Ki
Give bare numbers.

{"structure_notation": "Cc1c(-c2ccccc2)c2ccccc2n2cnc(C(=O)OC(C)(C)C)c12", "Ratio Ki": 1}

Fill in Ratio Ki for each of the 8 compounds listed.
1. CN(Cc1ccccc1)C(=O)c1cc2c(C(=O)OC(C)(C)C)ncn2c2ccccc12
2. CCOC(=O)c1ncn2c1CN(C(C)=O)c1cc(F)ccc1-2
3. CCOC(=O)c1ncn2c1cc(C(=O)N(C)Cc1ccccc1)c1ccccc12
4. CCOC(=O)c1ncn2c1cc(C(=O)N1CCN(C)CC1)c1ccccc12
5. CCOC(=O)c1ncn2c1CN(C(C)=O)c1ccccc1-2
6. Cc1c(C(=O)N(C)Cc2ccccc2)c2ccccc2n2cnc(C(=O)OC(C)(C)C)c12
7. CC(=O)N1Cc2c(C(=O)OC(C)(C)C)ncn2-c2ccc(F)cc21
8. CCCc1c(C(=O)N(CC)CC)c2ccccc2n2cnc(C(=O)OC(C)(C)C)c12

Response given:
0.98
0.75
0.52
1
0.9
1
1
1.1

Challenge: Field request: Ratio Ki | item: CCOC(=O)c1ncn2c1cc(-c1ccccc1)c1ccccc12
Response given: 0.9

====

- test_summary: Displacement of [3H]-flumazenil from central-type benzodiazepine receptor in bovine cortical membrane after 90 mins by liquid-phase scintillation beta-counting method
- Type: cell membranes, Bos taurus
Field: log10 Ki. Provide a value for each of the compounds that follow.
The common logarithm of Ki in nM is what is listed.

Observe how each entry below is paired with its result.
{"compound": "CCCc1c(C(=O)N(CC)CC)c2ccccc2n2cnc(C(=O)OCC)c12", "log10 Ki": 2.23}
{"compound": "CC(=O)N1Cc2c(C(=O)OC(C)(C)C)ncn2-c2ccccc21", "log10 Ki": 0.86}
{"compound": "Cc1c(-c2ccccc2)c2ccccc2n2cnc(C(=O)OC(C)(C)C)c12", "log10 Ki": 1.00}
{"compound": "CCOC(=O)c1ncn2c1cc(C(=O)N(C)C)c1ccccc12", "log10 Ki": 0.91}
{"compound": "CCCN(CCC)C(=O)c1cc2c(C(=O)OC(C)(C)C)ncn2c2ccccc12", "log10 Ki": 0.08}

For each of the items listed, what is its log10 Ki?
1. CCOC(=O)c1ncn2c1c(CO)c(-c1ccccc1)c1ccccc12
2. CCOC(=O)c1ncn2c1CN(C(C)=O)c1ccccc1-2
3. Cc1c(C(=O)N(C)Cc2ccccc2)c2ccccc2n2cnc(C(=O)OC(C)(C)C)c12
4. CCCc1c(C(=O)N(CC)CC)c2ccccc2n2cnc(C(=O)OC(C)(C)C)c12
5. CCOC(=O)c1ncn2c1c(C)c(C(=O)OC(C)(C)C)c1ccccc12
6. CCCN(CCC)C(=O)c1cc2c(C(=O)OCC)ncn2c2ccccc12
7. CN(Cc1ccccc1)C(=O)c1cc2c(C(=O)OC(C)(C)C)ncn2c2ccccc12

Response given:
[0.26, 1.40, 0.41, 3.46, 0.00, -0.04, 1.15]

// for each compound below, give its log10 Ki
1. CCCN(CCC)C(=O)c1cc2c(C(=O)OCC)ncn2c2ccc(F)cc12
2. CCOC(=O)c1ncn2c1cc(C(=O)N(C)Cc1ccccc1)c1cc(F)ccc12
3. CCCN(CCC)C(=O)c1c(C)c2c(C(=O)OCC)ncn2c2ccccc12
4. CCOC(=O)c1ncn2c1c(C)c(C(=O)O)c1ccccc12
5. CCOC(=O)c1ncn2c1c(C(=O)OCC)c(-c1ccccc1)c1ccccc12

Response given:
-0.36
0.76
0.18
2.02
3.34

Required: log10 Ki, one value per compound below.
1. CCOC(=O)Cc1c(-c2ccccc2)c2ccccc2n2cnc(C(=O)OCC)c12
2. CN1C(=O)CN=C(c2ccccc2F)c2cc([N+](=O)[O-])ccc21 [FLUNITRAZEPAM]
3. CCOC(=O)c1ncn2c1cc(-c1ccccc1)c1ccccc12

Response given:
1: 0.58; 2: 0.72; 3: 1.62

====

- test_summary: Displacement of [3H]-flumazenil from central-type benzodiazepine receptor in human cortical membrane after 90 mins by liquid-phase scintillation beta-counting method
- Assay type: cell membranes
Consider the following molecules; for each one, report its pKi.
Answers are plain numbers, as −log10 of the molar value.

{"structure_notation": "CCOC(=O)c1ncn2c1CN(C(C)=O)c1cc(F)ccc1-2", "pKi": 8.57}

// each listed molecule needs a value for pKi
1. CN1C(=O)CN=C(c2ccccc2F)c2cc([N+](=O)[O-])ccc21
2. CCOC(=O)c1ncn2c1CN(C)C(=O)c1cc(F)ccc1-2
3. CC(=O)N1Cc2c(C(=O)OC(C)(C)C)ncn2-c2ccccc21
4. CCOC(=O)c1ncn2c1c(CO)c(-c1ccccc1)c1ccccc12

Response given:
[8.19, 8.70, 8.11, 8.70]

Give pKi for each of the items listed below.
1. CCOC(=O)c1ncn2c1CN(C(C)=O)c1ccccc1-2
2. CC(=O)N1Cc2c(C(=O)OC(C)(C)C)ncn2-c2ccc(F)cc21

Response given:
[7.48, 8.70]
